Collected shrunken log2 fold change values appear next to each entry.
Tested on: Escherichia coli TOP10;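 further: peptides expressed intracellularly from a pBAD plasmid library in pooled LB shake-flask culture, induced with 0.3% L-arabinose, DNA abundance read by NGS, three biological replicates, DESeq2 with apeglm shrinkage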
Test: shrunken log2 fold change of peptide-encoding DNA abundance (4.5 h post-induction vs induction); higher = less antimicrobial activity (less host growth inhibition)
Conditions: time post-induction: 4.5 h; library: site-saturation at positions 5, 18, 19, 20

SEQUENCE_CODE	READOUT_KIND	RESULT
RRIRKRPPRLPRPRPRPIYVPRP	shrunken log2 fold change	0.0461
RRIRFRPPRLPRPRPRPAMTPRP	shrunken log2 fold change	0.00388
RRIRYRPPRLPRPRPRPQESPRP	shrunken log2 fold change	-0.0191

Dear colleague, I am looking for the recorded shrunken log2 fold change of the following sequence: RRIRARPPRLPRPRPRPRQCPRP
0.353
